These entries and their values trace back to patent US6262075A.

Record: Ki reported on UniProtKB P21452.
Sequence (P21452 whole entry): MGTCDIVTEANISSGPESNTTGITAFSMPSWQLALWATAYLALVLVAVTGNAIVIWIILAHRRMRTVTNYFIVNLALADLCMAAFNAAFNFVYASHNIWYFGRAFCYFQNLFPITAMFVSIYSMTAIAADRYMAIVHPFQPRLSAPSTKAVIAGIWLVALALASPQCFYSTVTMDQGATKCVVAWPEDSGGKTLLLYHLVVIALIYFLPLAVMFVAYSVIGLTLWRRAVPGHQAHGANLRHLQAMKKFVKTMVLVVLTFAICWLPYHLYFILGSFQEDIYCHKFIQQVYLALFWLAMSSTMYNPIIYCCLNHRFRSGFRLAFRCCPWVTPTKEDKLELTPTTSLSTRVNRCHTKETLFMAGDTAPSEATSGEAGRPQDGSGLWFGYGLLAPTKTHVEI
MEASURED ATTRIBUTE: Ki (nM)

P: O=C1CC[C@](CCN2CC(N3CCC(F)CC3)C2)(c2ccc(Cl)c(Cl)c2)CN1CC1CCC(F)(F)CC1
Q: O=C1CCC(CCN2CC(N3CCC(F)CC3)C2)(c2ccc(Cl)c(Cl)c2)CN1C1CCCCC1 (centres unmarked)
Exercise: Higher Ki between P and Q ? Pick one and reply with its label.
Solution: P
